Would you mind telling me the reported binding signal of each entry?
target: TDP-43 (Homo sapiens, UniProt Q13148 1-414); assay: RNA Bind-n-Seq with designed 260-mer pool; 25 mM Tris-HCl, 150 mM KCl, 3 mM MgCl2, BSA (printed 500 mg/mL), 20 units/mL SUPERase IN; pH not stated; 500 nM RNA pool, 1 h, 4 C; TDP-43 5, 50, 500 nM; high values mean tight binding; details: protein: recombinant; tags: SBP (GST cleaved off with PreScission; pGEX-GST-SBP)
Sequence (Q13148 whole entry): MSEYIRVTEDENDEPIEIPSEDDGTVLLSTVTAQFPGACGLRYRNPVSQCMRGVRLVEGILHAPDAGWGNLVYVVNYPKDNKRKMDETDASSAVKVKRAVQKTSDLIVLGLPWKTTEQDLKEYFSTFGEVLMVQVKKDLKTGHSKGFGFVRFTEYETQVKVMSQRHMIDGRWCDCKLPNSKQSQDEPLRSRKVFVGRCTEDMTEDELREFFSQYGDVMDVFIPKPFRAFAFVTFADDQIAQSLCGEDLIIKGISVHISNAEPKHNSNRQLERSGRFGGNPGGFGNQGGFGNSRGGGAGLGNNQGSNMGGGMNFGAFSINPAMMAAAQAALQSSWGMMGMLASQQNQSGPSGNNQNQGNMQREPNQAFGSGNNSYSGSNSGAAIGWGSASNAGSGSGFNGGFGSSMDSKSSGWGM
In all, about 9,900 sequences were measured (“r (bound/input frequency ratio)”: median about 0.7, highest 2% from about 6.5 on). What follows is part of a selection rich in the highest values, with near analogues and random picks from the rest.

ENSMUSG00000043670.208|Diras1 (ssRNA) RNA: GGGAGUUCUACAGUCCGACGAUCGCUUCGAUAUCCGCAUGCUAUUAGAAUUCUGUGUUUAUGUGCCUGUGUGUGUGGAUGGGUGUGUGUCUGUCUUGGGAUGGGGUGUUCUUGCACCACUUUGUGUUCUUAGUGAGACCACAGUGUAAGUGGCCGUGUGUGUGUGUGGGGGGGGGCACCUAGACAUUGUGGUGUGUCUGUAUGGCUCUGUGUUUUCAGGGGUGGGUGACACAGGCCUGUCUGAUGAGCACCAGGUCUGUUCCAGGCUGUGGCAAGCUGGCUCCUGGCUCAGAAGUGACAAAGCCUCUUGCGGUCGCACUAGUGUGGAAUUCUCGGGUGUCAAGG: 7.79 R (bound/input frequency ratio)

Then there is this binder:
Fill in: binding signal of ENSMUSG00000043670.198|Diras1 (ssRNA) RNA: GGGAGUUCUACAGUCCGACGAUCGCUUCGAUAUCCGCAUGCUAGAGACUGUCCAGGAGACUUGAGUGGCUCCUGGGCCUGUGUCCCACCCAGAUGAGGGUGACUUAGAAUUCUGUGUUUAUGUGCCUGUGUGUGUGGAUGGGUGUGUGUCUGUCUUGGGAUGGGGUGUUCUUGCACCACUUUGUGUUCUUAGUGAGACCACAGUGUAAGUGGCCGUGUGUGUGUGUGGGGGGGGGCACCUAGACAUUGUGGUGUGUCUGUAUGGCUCUGUGUUUUCAGGGGUGGGUGACACAGGCCUGUCUGACUCUUGCGGUCGCACUAGUGUGGAAUUCUCGGGUGUCAAGG is ___ 4.93 R (bound/input frequency ratio)
